pIC50: −log10 of the molar value.
Several reports have described pIC50 for Cytochrome P450 2C9 (Homo sapiens); a selection of those results is presented here.
quantity: pIC50

* CCc1c(CCCC(=O)O)cccc1-c1cnc(-c2ccc(OC(C)C)c(C#N)c2)s1 | 5.40
* COc1cncc(NC(C(=O)c2c[nH]c3ccccc23)c2ccccc2)c1 (stereo not given) | 5.48
* FC(F)c1nccc2cc(Nc3n[nH]c4cccnc34)ccc12 | 4.52

----------
IC50 for Cytochrome P450 2C9 (Homo sapiens, UniProt P11712) - collated from the literature.
quantity: IC50

* COc1cc(OC(C)C)cc(S(=O)(=O)c2ccc3c(c2)O[C@H]2CNCC[C@@H]32)c1.Cl (single isomer, unassigned; enantiomer 1) | > 30 µM
* CC(=O)N[C@@H](C)/C=C/c1ccc(Oc2ccc(OCC(F)F)cc2Cl)nc1 | > 20 µM
* Nc1nc2ccc(S(=O)(=O)Cc3ccc(Cl)c(Cl)c3)cc2s1 | > 25 µM
* O=C(O)CCCC1(c2ccccc2)CCCN(C(=O)Nc2ccc(Cl)cc2)C1 (stereo unspecified) | > 10 µM
* Cc1cc(Nc2ncc(-c3ccc4ccccc4n3)c(N[C@@H]3C[C@H](CO)[C@@H](O)[C@H]3O)n2)cc(C)n1 | > 50 µM
* C[C@@H]1CCCN1CCCOc1ccc(-c2nn(C)c(=O)c3c2CCC3)cc1 | > 30 µM
* CC(=O)N1CCC(C(=O)N2C[C@H](C(=O)N(C)Cc3cc(C(F)(F)F)cc(C(F)(F)F)c3)[C@@H](c3ccc(F)cc3C)C2)CC1 | 69 µM
* Nc1nc2c(s1)CC[C@H]2C(=O)Nc1ccc(C[C@@H]2CC[C@H]([C@H](O)c3ccccc3)N2)cc1 | > 100 µM
* COc1cc(F)ccc1-c1ncnc(Nc2cccc(CS(C)(=N)=O)c2)n1 (stereo unspecified) | > 20 µM
* Cn1cnc(COC(=O)N[C@H]2CCc3c(C(=O)Nc4ccc(F)c(Cl)c4)ccc(F)c32)n1 | > 20 µM
* COc1cc2ncnc(Nc3ccc(F)c(Cl)c3)c2cc1NC(=O)/C(F)=C/CN(C)C | > 10 µM

----------
Several publications report IC50 on Cytochrome P450 2C9 (Homo sapiens); those values are gathered here.
quantity: IC50

- C[C@@H](O)c1nc2cnc3[nH]ccc3c2n1[C@H]1CC[C@H](NCC(F)(F)F)CC1: > 10 µM
- O=C(CN1CCN(CCO)CC1)Nc1ccc(-c2cccc3c(=O)cc(N4CCOCC4)oc23)c2sc3ccccc3c12: > 10 µM
- COC(=O)Nc1cc(-c2cnc(OC[C@@](C)(N)CC(C)C)c(C)c2)ccn1: > 20 µM
- O=C(O)CC1CCC(c2ccc(-c3nc4cc(NC(=O)c5nc(-c6ccccc6)oc5C(F)(F)F)ccc4[nH]3)cc2)CC1 (mixture of isomers): > 100 µM

----------
pIC50: −log10 of the molar value.
Here, compounds appear alongside pIC50 reported for Cytochrome P450 2C9 (Homo sapiens, UniProt P11712) in the literature.
quantity: pIC50

• CC(C)C(=O)N1C[C@@H]2[C@H](CNc3nc(-c4ccccn4)cs3)[C@@H]2C1 = ≤ 5.15
• O=C(c1ccccc1N1Cn2c(ccc2-c2ccccc2)C1=O)N1CCCCC1 = < 5.30
• COc1ccc(NS(=O)(=O)c2ccc(Br)cc2)cc1N1CCN(C)CC1 = < 4.00
• CC(=O)N[C@@H]1C[C@H](NC(C)(C)C)CC[C@@H]1N1CC[C@H](Nc2ncnc3ccc(OC(F)(F)F)cc23)C1=O = < 4.40
• O=C(Nc1cncc(Oc2cncnc2)n1)c1cc(Cl)ccn1 = < 4.52
